Target: T1, his-tagged murine TIGIT (Acro Biosystems #TIT-M52E6) (murine, UniProt P86176 29-148, limits assumed)
T1 construct: Bought protein; also called mouse his-tagged TIGIT; not shown: his tag
T1 sequence (looked up): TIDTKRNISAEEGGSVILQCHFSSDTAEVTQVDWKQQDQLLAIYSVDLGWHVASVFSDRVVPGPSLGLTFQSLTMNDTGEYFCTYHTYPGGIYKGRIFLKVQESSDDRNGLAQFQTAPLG
Assay: SPR (Carterra LSA), scFv-Fc captured, His-TIGIT analyte
pKd: −log10 of the molar value.
Parameter Measured: pKd

- 43586p1.2.F9 (scFv, V domains shown) VH: EVQLLESGGGLVQPGGSLRLSCAASGFTFDDYVMSWVRQAPGKGLEWVSLINWNGDKTYYADSVKGRFTISRDNSKNTLYLQMNSLRAEDTAIYYCAKHWIVFQYGMDVWGRGTTVTVSS VL: QSVLTQPPSASGTPGQRVTISCSGSISNIETKYVSWYQQLPGTAPKLLIYNSDQRPSGVPDRFSGSKSGTSASLAISGLQSEDEADYYCVSWDASLKSWVFGGGTKLTVL: 8.31
- 43586p2.D06 (scFv, V domains shown) VH: EVQLLESGGGLVQPGGSLRLSCAASGFTFSSYWMNWVRQAPGKGLEWVSGIYSGGTTYYADSVKGRFTISRDNSKNTLYLQMNSLRAEDTAVYYCTRENWKENNAMDVWGQGTTVTVSS VL: QSVLTQPPSASGTPGQRVTISCSGVTSNIASYHVYWYQQLPGTAPKLLIYLNSQRPSGVPDRFSASKSGTSASLAISGLQSEDEADYYCATWDGSLNGWVFGGGTKLTVL: 8.51
- 43586p2.E08 (scFv, V domains shown) VH: EVQLLESGGDLVQPGGSLRLSCAASGFTFDDYVMSWVRQAPGKGLEWVSLINWNGDKTYYADSVKDRFTISRDNSKNTLYLQMNSLRAEDTAVYYCARHWIVFQYGLDVWGQGTTVTVSS VL: QSVLTQPLSASGTPGQRVTISCSGVSSNIEIKYVSWYQQLPGTAPKLLIYNSHQRPSGVPDRFSGSKSGTSASLAISGLQSEDEADYYCTSWDDRLKSWVFGGGTKLTVL: 8.24
